# experiment.notes: Log P (n-octanol/water partitioning)
metric.name: logP

>>> value_reported("CCCCCCC(C)(C)c1cc(O)c2c(c1)OC(C)(C)[C@H]1CC=C(CO)C[C@H]21")
7.6

Each recorded value in this set is attributed to patent US12383626B2.
